- assay-summary: NCI Yeast Anticancer Drug Screen. Data for the mlh1 rad18 strain (AID 175)
- settings: S. cerevisiae mlh1 rad18 strain growth inhibition; at 50.0 µM; stronger effect = higher value
This is part of a sample that, as a whole, favours compounds with a hit. Of some 79,000 tested, about 15% had one in any assay.
value-type: growth inhibition (%)
Just the number please, in %, no unit attached.

Need growth inhibition, item CCOC(=O)C(C#N)(C1C=CCC1)C1C=CCC1 (stereo not drawn) 13.3

// query: CC(C)(Oc1ccc(/C=C/C(=O)c2ccccc2)cc1)C(=O)Nc1c(Cl)cccc1Cl -1.45

Repeat for the following compound: c1ccc(CNc2ncnc3n[nH]nc23)cc1 -8.3

---

- assay-summary: NCI Yeast Anticancer Drug Screen. Data for the mlh1 rad18 strain (AID 175)
- settings: S. cerevisiae mlh1 rad18 strain growth inhibition; at 50.0 µM; stronger effect = higher value
This is part of a sample that, as a whole, favours compounds with a hit. Of some 79,000 tested, about 15% had one in any assay. Activity calls are given as the source filed them. No stated cut-off is given here; in the data, active means growth inhibition above about 70%; inactive means the rest.
value-type: growth inhibition

Returns the measured growth inhibition for the input molecule. Input: CC(=O)OC1=C(C)C2=C3OC(=O)C(C)=C3CC[C@@]2(C)[C@@H](Cl)[C@@H]1Cl -57.9% (inactive)

Request: O=c1[nH]c(=O)n(C2CC(O)C(CO)O2)cc1NN=NCCc1ccccc1 (centres undefined) 10.8% (inactive)

What do we get for CC(C(=O)O)C(C)(O)C(C)(C)C (centres undefined) ? -6.95% (inactive)

Here is the next molecule: CCC(C(=O)O)C1=CCCCC1 (centres undefined) 4.45% (inactive)

---

- assay-summary: NCI Yeast Anticancer Drug Screen. Data for the rad50 strain (AID 155);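 further: 0% = growth of vehicle-only cultures of the same strain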
- settings: S. cerevisiae rad50 strain growth inhibition; at 50.0 µM; stronger effect = higher value
The panel holds about 79,000 compounds, 15% with a hit somewhere; the sample as a whole holds those more often.
value-type: growth inhibition (%)
Write the number in % without appending the unit.

Returns the measured growth inhibition for the input molecule. Input: C/C=C(\C)c1cc(=O)c2c(C)cc3c(c2o1)C(=O)c1c(OC)cccc1C3=O 14.2

Repeat with CC(C)(C)[Si](C)(C)OCCC1CC2(S(=O)(=O)C3=CC=C=C=C3)ON1CC2S(=O)(=O)c1ccccc1 (stereo not given) 6.8

Now consider COc1ccc2nc(-c3ccccc3)c(=O)[nH]c2c1 . 4.1

Same read-out for CCC(C)C(C(=O)OCCC[N+]1(C)CCCCC1)c1ccccc1 (stereo not given) ? 49.9

Ok, now CCOC(=O)C(=O)OCC 24.9

Moving on to O=S(=O)(O)SCC1=NCCCCN1 -2.95

Quick one: CC1(SCC(N)C(=O)O)CC(=O)NC1=O (stereo not given) -40.5

Now try Cc1ccc(C2(O)CCCCC2)cc1 . -9.8

Then this molecule: O=C(OCc1ccccc1CN1CCOCC1)c1cccc(Cl)c1 13.8

What do you have for COC(=O)c1nc[nH]c1C(=O)OC ? 10.2

Then this molecule: Cc1n[nH]c(=O)n1N1C(=O)c2ccccc2C1=O -1.25

Now the same for CCN(CC)CCOC1CCCCC1Cc1ccccn1 (stereo not given) -1.55

Okay, and CSC(=NCCN=C(NS(=O)(=O)c1ccc(Cl)cc1)SC)NS(=O)(=O)c1ccc(Cl)cc1 ? 5.95

Here is the next molecule: OC1(C2(O)CCCCC2)CCCCC1 -38.2

Subsequent entry: Cc1ccc(S(=O)(=O)CCN2CCOCC2)cc1 15.3
